Collected pIC50 values appear next to each entry.
STUDY_SYSTEM: Bromodomain adjacent to zinc finger domain protein 2A (Homo sapiens, UniProt Q9UIF9)
Sequence (Q9UIF9 whole entry, the tested form may be a part): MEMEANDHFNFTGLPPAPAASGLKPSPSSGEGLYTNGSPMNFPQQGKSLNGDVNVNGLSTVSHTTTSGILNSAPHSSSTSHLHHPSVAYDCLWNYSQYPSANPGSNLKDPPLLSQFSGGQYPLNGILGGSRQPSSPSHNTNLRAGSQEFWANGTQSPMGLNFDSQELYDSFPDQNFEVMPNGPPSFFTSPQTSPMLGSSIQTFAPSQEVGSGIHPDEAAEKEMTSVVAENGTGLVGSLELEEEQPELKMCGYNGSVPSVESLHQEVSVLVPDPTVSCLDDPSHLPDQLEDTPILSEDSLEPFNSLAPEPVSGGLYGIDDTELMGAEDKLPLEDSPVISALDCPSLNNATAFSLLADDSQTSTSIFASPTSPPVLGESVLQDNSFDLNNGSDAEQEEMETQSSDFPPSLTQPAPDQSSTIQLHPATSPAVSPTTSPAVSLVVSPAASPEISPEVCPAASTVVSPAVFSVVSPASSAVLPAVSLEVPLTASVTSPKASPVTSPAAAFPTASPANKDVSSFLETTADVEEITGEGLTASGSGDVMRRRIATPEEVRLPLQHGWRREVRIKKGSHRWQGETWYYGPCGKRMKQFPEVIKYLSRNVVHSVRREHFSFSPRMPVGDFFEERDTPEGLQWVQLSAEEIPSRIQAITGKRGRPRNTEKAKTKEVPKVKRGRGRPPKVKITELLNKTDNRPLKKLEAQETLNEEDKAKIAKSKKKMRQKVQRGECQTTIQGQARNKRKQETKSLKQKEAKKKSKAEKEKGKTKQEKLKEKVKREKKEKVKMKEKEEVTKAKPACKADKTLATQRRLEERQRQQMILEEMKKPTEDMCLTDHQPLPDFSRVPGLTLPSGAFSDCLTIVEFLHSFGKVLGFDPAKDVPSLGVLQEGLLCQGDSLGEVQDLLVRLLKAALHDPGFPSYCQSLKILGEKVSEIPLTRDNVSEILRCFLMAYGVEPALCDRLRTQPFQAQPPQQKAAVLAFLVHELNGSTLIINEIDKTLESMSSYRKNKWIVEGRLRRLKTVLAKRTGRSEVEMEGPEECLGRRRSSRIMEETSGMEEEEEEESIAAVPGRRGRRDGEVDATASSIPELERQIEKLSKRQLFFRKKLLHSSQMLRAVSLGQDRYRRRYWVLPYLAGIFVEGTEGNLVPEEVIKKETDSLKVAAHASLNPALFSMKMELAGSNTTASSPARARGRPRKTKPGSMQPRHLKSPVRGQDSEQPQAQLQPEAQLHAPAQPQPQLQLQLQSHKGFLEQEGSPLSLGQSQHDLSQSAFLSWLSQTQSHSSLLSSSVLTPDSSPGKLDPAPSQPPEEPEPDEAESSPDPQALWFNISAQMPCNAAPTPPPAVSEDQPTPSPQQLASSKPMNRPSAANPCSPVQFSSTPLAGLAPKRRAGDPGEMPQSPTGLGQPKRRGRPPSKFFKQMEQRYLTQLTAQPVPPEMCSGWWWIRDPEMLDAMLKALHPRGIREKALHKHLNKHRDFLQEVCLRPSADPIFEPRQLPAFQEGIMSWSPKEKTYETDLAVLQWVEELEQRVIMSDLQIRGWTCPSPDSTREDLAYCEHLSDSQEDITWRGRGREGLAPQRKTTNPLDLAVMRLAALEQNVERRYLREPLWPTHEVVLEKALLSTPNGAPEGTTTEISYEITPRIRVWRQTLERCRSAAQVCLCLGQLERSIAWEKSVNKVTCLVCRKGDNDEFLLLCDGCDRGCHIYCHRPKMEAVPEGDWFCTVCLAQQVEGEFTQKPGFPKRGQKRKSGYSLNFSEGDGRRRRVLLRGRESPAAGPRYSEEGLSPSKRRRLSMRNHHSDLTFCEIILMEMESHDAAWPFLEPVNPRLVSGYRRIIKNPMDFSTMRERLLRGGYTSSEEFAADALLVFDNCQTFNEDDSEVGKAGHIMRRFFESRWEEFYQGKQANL
EXPERIMENTAL_DETAILS: Inhibition of human BAZ2A (M1792 to L1905 residues) expressed in bacterial expression system by BROMOscan assay
pIC50: −log10 of the molar value.
VALUE_KIND: pIC50

>>> print(df.to_string())
                                  structure  relation_symbol  number
0  Cc1[nH]c(-c2cc(S(C)(=O)=O)ccc2Oc2ccc(F)cc2F)c2c1C(=O)NCC2                <    5.00
1  Cn1cc(-c2cc(S(C)(=O)=O)ccc2Oc2ccc(F)cc2F)c2cc[nH]c(=O)c21                =    5.00
2  Cc1[nH]c(-c2cc(NS(C)(=O)=O)ccc2Oc2ccccc2)c2c1C(=O)CCC2                =    5.00

----------
Collected IC50 values appear next to each entry.
STUDY_SYSTEM: CREB-binding protein (Homo sapiens, UniProt Q92793)
Sequence (Q92793 whole entry, the tested form may be a part): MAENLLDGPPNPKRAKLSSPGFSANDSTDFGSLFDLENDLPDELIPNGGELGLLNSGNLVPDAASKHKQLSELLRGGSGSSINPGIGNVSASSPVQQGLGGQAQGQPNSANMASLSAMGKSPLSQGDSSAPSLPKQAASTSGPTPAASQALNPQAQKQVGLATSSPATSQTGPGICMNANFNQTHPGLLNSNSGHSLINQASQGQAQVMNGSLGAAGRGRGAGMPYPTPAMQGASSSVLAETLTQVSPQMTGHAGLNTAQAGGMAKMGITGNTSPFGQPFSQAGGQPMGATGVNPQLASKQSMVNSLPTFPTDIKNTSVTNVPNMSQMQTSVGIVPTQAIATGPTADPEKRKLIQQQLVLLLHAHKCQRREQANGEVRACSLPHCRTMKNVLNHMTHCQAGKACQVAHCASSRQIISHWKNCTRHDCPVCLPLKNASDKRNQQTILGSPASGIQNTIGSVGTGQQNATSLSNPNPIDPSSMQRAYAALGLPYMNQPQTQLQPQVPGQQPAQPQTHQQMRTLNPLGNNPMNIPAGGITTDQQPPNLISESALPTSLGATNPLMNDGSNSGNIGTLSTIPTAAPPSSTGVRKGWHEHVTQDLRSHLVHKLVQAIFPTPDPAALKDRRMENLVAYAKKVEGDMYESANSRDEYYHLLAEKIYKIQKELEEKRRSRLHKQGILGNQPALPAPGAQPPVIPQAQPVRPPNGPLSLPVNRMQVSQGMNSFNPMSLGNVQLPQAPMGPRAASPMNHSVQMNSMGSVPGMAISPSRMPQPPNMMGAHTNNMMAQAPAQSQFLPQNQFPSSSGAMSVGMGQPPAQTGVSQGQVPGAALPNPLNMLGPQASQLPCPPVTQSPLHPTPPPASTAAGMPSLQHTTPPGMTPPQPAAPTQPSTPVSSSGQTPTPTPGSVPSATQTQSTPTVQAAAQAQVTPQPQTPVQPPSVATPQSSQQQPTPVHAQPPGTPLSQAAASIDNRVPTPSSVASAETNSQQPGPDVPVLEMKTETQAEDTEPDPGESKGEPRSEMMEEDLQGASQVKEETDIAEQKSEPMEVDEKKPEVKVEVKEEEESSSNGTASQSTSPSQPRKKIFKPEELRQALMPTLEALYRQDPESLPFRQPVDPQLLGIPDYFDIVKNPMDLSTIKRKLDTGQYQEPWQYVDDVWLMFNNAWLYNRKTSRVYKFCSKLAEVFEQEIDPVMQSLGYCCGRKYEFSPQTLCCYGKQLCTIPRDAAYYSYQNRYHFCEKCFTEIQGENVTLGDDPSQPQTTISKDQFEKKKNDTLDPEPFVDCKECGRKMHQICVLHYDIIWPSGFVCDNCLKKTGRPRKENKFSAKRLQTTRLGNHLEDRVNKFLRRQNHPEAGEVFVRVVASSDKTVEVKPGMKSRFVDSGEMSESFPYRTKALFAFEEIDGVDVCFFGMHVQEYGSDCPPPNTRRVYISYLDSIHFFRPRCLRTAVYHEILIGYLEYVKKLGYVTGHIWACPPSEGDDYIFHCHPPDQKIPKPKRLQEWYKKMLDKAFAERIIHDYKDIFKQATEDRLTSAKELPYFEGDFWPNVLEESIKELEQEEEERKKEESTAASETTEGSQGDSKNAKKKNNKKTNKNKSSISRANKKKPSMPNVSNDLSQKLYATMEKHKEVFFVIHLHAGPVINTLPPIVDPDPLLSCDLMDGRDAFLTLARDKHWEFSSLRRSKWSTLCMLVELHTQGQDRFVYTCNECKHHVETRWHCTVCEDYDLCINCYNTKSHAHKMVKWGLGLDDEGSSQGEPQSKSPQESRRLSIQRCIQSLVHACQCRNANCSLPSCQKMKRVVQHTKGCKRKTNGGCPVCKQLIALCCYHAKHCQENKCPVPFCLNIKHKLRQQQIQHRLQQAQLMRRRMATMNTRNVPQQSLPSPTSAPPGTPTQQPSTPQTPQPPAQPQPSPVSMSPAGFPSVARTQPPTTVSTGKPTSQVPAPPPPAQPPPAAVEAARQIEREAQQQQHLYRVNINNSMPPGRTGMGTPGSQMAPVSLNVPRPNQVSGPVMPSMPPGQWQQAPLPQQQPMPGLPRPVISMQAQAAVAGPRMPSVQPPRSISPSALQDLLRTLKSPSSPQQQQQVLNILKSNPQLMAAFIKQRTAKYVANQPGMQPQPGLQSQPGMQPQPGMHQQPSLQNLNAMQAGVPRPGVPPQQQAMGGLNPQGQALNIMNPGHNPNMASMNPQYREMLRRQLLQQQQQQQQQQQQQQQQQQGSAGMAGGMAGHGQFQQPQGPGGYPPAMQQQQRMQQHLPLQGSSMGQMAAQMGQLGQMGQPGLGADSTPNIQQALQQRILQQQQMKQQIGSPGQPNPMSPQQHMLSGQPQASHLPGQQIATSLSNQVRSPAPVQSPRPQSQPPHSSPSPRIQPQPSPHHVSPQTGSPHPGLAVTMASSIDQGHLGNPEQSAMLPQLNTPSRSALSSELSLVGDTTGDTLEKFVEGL
EXPERIMENTAL_DETAILS: Inhibition of human CREBBP (R1081 to G1197 residues) expressed in bacterial expression system by BROMOscan assay
VALUE_KIND: IC50

>>> print(df.to_string())
                                  structure  result
0  Cc1[nH]c(-c2cc(S(C)(=O)=O)ccc2Oc2ccc(F)cc2F)c2c1C(=O)NCC2    1 µM
1  Cc1[nH]c(-c2cc(NS(C)(=O)=O)ccc2Oc2ccccc2)c2c1C(=O)CCC2    1 µM

----------
Test system: Mus musculus
EXPERIMENTAL_DETAILS: Unbound AUC in mouse at 10 mg/kg, po
Assay type: ADME, organism-based
EXPERIMENTAL_CONDITIONS: in vivo
VALUE_KIND: fAUC

                                  structure  study_system     result
0  CCS(=O)(=O)Nc1ccc(Oc2ccc(F)cc2)c(-c2cn(C)c3c(=O)[nH]ccc23)c1  Mus musculus  0.06 µM·h
1  Cc1[nH]c(-c2cc(S(C)(=O)=O)ccc2Oc2ccc(F)cc2F)c2c1C(=O)NCC2  Mus musculus  0.53 µM·h
2  Cc1[nH]c(-c2cc(NS(C)(=O)=O)ccc2Oc2ccccc2)c2c1C(=O)CCC2  Mus musculus  0.09 µM·h
3  Cn1cc(-c2cc(S(C)(=O)=O)ccc2Oc2ccc(F)cc2F)c2cc[nH]c(=O)c21  Mus musculus  0.86 µM·h

----------
Collected pEC50 values appear next to each entry.
STUDY_SYSTEM: Bromodomain-containing protein 4 (Homo sapiens, UniProt O60885)
EXPERIMENTAL_DETAILS: Inhibition of BRD4 (unknown origin) expressed in human H1299 cells co-expressing HPV16-LCR/E2 after 24 hrs by Bright Glo-luciferase reporter gene assay
pEC50: −log10 of the molar value.
VALUE_KIND: pEC50

                                   structure  value_kind  relation_symbol  number
 0  Cc1[nH]c(-c2cc(S(C)(=O)=O)ccc2Oc2ccc(F)cc2F)cc1C(N)=O       pEC50                =    5.35
 1     Cc1[nH]c(-c2ccccc2Nc2ccccc2)cc1C(N)=O       pEC50                =    5.55
 2  Cc1[nH]c(-c2cc(NS(C)(=O)=O)ccc2Oc2ccc(F)cc2F)c2c1C(=O)NCC2       pEC50                =    6.38
 3  Cn1cc(-c2cc(S(C)(=O)=O)ccc2Oc2ccc(F)cc2F)c2cc[nH]c(=O)c21       pEC50                =    6.82
 4  Cn1cc(-c2cc(NS(C)(=O)=O)ccc2Oc2ccc(F)cc2F)c2cc[nH]c(=O)c21       pEC50                =    7.34
 5  Cc1[nH]c(-c2cc(NS(C)(=O)=O)ccc2Oc2ccccc2)c2c1C(=O)NCC2       pEC50                =    6.92
 6  Cc1[nH]c(-c2cc(NS(C)(=O)=O)ccc2Oc2ccccc2)cc1C(N)=O       pEC50                =    5.85
 7  Cn1cc(-c2ccccc2Oc2ccccc2)c2cc[nH]c(=O)c21       pEC50                =    5.96
 8  CCS(=O)(=O)Nc1ccc(Oc2ccccc2)c(-c2[nH]c(C)c3c(=O)[nH]ncc23)c1       pEC50                =    7.12
 9  Cc1[nH]c(-c2cc(N)ccc2Oc2ccccc2)cc1C(N)=O       pEC50                =    6.06
10  Cc1[nH]c(-c2cc(S(C)(=O)=O)ccc2Oc2ccc(F)cc2F)c2c1C(=O)NCC2       pEC50                =    6.54
11             Cc1[nH]c(-c2ccccc2N)cc1C(N)=O       pEC50                <    5.00
12  CCNC(=O)c1ccc(Oc2ccccc2)c(-c2[nH]c(C)c3c2CCCC3=O)c1       pEC50                =    5.85
13         Cc1[nH]c(-c2ccccc2N)c2c1C(=O)CCC2       pEC50                =    5.15
14  Cc1[nH]c(-c2cc(NS(C)(=O)=O)ccc2Oc2ccc(F)cc2F)cc1C(N)=O       pEC50                =    5.64
15  Cc1[nH]c(-c2ccccc2Oc2ccccc2)c2c1C(=O)NCC2       pEC50                =    6.55
16  Cn1cc(-c2cc(S(C)(=O)=O)ccc2Oc2ccccc2)c2cc[nH]c(=O)c21       pEC50                =    7.04
17  Cc1[nH]c(-c2ccccc2Oc2ccccc2)c2c1C(=O)CCC2       pEC50                =    6.55
18  COC(=O)c1ccc(Oc2ccccc2)c(-c2[nH]c(C)c3c2CCCC3=O)c1       pEC50                =    5.70
19  Cc1[nH]c(-c2ccccc2Oc2ccccc2)c2nc[nH]c(=O)c12       pEC50                =    5.80
20  Cc1[nH]c(-c2cc(NS(C)(=O)=O)ccc2Oc2ccccc2)c2nc[nH]c(=O)c12       pEC50                =    6.39

----------
STUDY_SYSTEM: Bromodomain testis-specific protein (Homo sapiens)
EXPERIMENTAL_DETAILS: Binding affinity to BRDT BD1-BD2 (N21 to P380 residues) (unknown origin) after 1 hr by Alexa-647-conjugated probe based TR-FRET assay
VALUE_KIND: Ki (nM)

In [3]: df
Out[3]:
                                  structure  number
0  Cc1[nH]c(-c2cc(S(C)(=O)=O)ccc2Oc2ccc(F)cc2F)c2c1C(=O)NCC2     140
1  Cc1[nH]c(-c2cc(NS(C)(=O)=O)ccc2Oc2ccccc2)c2c1C(=O)CCC2     110
2  Cn1cc(-c2cc(S(C)(=O)=O)ccc2Oc2ccc(F)cc2F)c2cc[nH]c(=O)c21     490

----------
EXPERIMENTAL_DETAILS: Oral bioavailability in mouse at 10 mg/kg
Format: ADME, organism-based
EXPERIMENTAL_CONDITIONS: in vivo
Collected bioavailability values appear next to each entry.
VALUE_KIND: bioavailability (%)

>>> df
                                  structure  number
0  Cn1cc(-c2cc(S(C)(=O)=O)ccc2Oc2ccc(F)cc2F)c2cc[nH]c(=O)c21      57
1  Cc1[nH]c(-c2cc(S(C)(=O)=O)ccc2Oc2ccc(F)cc2F)c2c1C(=O)NCC2      32
2  CCS(=O)(=O)Nc1ccc(Oc2ccc(F)cc2)c(-c2cn(C)c3c(=O)[nH]ccc23)c1      33
3  Cc1[nH]c(-c2cc(NS(C)(=O)=O)ccc2Oc2ccccc2)c2c1C(=O)CCC2      30

----------
Collected Ki values appear next to each entry.
STUDY_SYSTEM: Bromodomain-containing protein 4 (Homo sapiens, UniProt O60885)
EXPERIMENTAL_DETAILS: Binding affinity to His-tagged BRD4 BD1-BD2 (K57 to K550 residues) (unknown origin) after 1 hr by Alexa-647-conjugated probe based TR-FRET assay
VALUE_KIND: Ki

>>> print(df.to_string())
                                   structure  value_kind    result
 0  Cc1[nH]c(-c2cc(NS(C)(=O)=O)ccc2Oc2ccc(F)cc2F)cc1C(N)=O          Ki    370 nM
 1  Cc1[nH]c(-c2ccccc2Oc2ccc(Cl)cc2)cc1C(N)=O          Ki    410 nM
 2  Cc1[nH]c(-c2cc(S(C)(=O)=O)ccc2Oc2ccc(F)cc2F)c2c1C(=O)NCC2          Ki    300 nM
 3  Cc1[nH]c(-c2cc(NS(C)(=O)=O)ccc2Oc2ccccc2)c2cn[nH]c(=O)c12          Ki     30 nM
 4  Cc1[nH]c(-c2cc(S(C)(=O)=O)ccc2Oc2ccc(F)cc2F)c2c1C(=O)CCC2          Ki    460 nM
 5  Cc1[nH]c(-c2cc(NS(C)(=O)=O)ccc2Oc2ccccc2)cc1C(N)=O          Ki    280 nM
 6             Cc1[nH]c(-c2ccccc2N)cc1C(N)=O          Ki  22000 nM
 7  Cn1cc(-c2ccccc2Oc2ccccc2)c2cc[nH]c(=O)c21          Ki    120 nM
 8  COC(=O)c1ccc(Oc2ccccc2)c(-c2[nH]c(C)c3c2CCCC3=O)c1          Ki     91 nM
 9     Cc1[nH]c(-c2ccccc2Oc2ccccc2)cc1C(N)=O          Ki    270 nM
10  Cn1cc(-c2cc(S(C)(=O)=O)ccc2Oc2ccccc2)c2cc[nH]c(=O)c21          Ki     17 nM
11  COC(=O)C[C@@H]1N=C(c2ccc(Cl)cc2)c2c(sc(C)c2C)-n2c(C)nnc21          Ki     17 nM
12  Cc1[nH]c(-c2cc(NS(C)(=O)=O)ccc2Oc2ccccc2)c2nc[nH]c(=O)c12          Ki    150 nM
13  Cc1[nH]c(-c2cc(NS(C)(=O)=O)ccc2Oc2ccc(F)cc2F)c2c1C(=O)NCC2          Ki     84 nM
14  Cc1[nH]c(-c2cc(NS(C)(=O)=O)ccc2Oc2ccc(F)cc2F)c2c1C(=O)CCC2          Ki     97 nM
15     Cc1[nH]c(-c2ccccc2Nc2ccccc2)cc1C(N)=O          Ki    450 nM
16  CCNC(=O)c1ccc(Oc2ccccc2)c(-c2[nH]c(C)c3c2CCCC3=O)c1          Ki    250 nM
17  Cn1cc(-c2cc(CS(C)(=O)=O)ccc2Oc2ccc(F)cc2F)c2cc[nH]c(=O)c21          Ki     11 nM
18  Cc1[nH]c(-c2cc(N)ccc2Oc2ccccc2)cc1C(N)=O          Ki    420 nM
19  Cc1[nH]c(-c2cc(N)ccc2Oc2ccccc2)c2c1C(=O)CCC2          Ki    210 nM
20  Cc1[nH]c(-c2cc(NS(C)(=O)=O)ccc2Oc2ccccc2)c2c1C(=O)CCC2          Ki     33 nM
21  Cc1[nH]c(-c2cc(NS(C)(=O)=O)ccc2Oc2ccc(F)cc2F)c2cn[nH]c(=O)c12          Ki     16 nM
22  Cn1cc(-c2cc(S(C)(=O)=O)ccc2Oc2ccc(F)cc2F)c2cc[nH]c(=O)c21          Ki     98 nM
23  CCS(=O)(=O)Nc1ccc(Oc2ccccc2)c(-c2[nH]c(C)c3c(=O)[nH]ncc23)c1          Ki     10 nM
24  Cc1[nH]c(-c2ccccc2Oc2ccccc2)c2cc[nH]c(=O)c12          Ki    450 nM
25  Cc1[nH]c(-c2ccccc2Oc2ccccc2)c2nc[nH]c(=O)c12          Ki   1100 nM
26  Cc1[nH]c(-c2ccccc2Oc2ccccc2)c2c1C(=O)CCC2          Ki    440 nM
27  Cc1[nH]c(-c2ccccc2Oc2ccccc2)c2cn[nH]c(=O)c12          Ki     37 nM
28  Cc1[nH]c(-c2cc(S(C)(=O)=O)ccc2Oc2ccc(F)cc2F)c2cn[nH]c(=O)c12          Ki     77 nM
29  CCS(=O)(=O)Nc1ccc(Oc2ccc(F)cc2F)c(-c2cn(C)c3c(=O)[nH]ccc23)c1          Ki     11 nM
30         Cc1[nH]c(-c2ccccc2N)c2c1C(=O)CCC2          Ki   9500 nM
31  Cn1cc(-c2cc(NS(C)(=O)=O)ccc2Oc2ccc(F)cc2F)c2cc[nH]c(=O)c21          Ki     17 nM
32             CCOC(=O)c1[nH]c(C)c2c1CCCC2=O          Ki  25000 nM
33              Cc1[nH]c(-c2ccccc2)cc1C(N)=O          Ki  12000 nM
34  Cc1[nH]c(-c2ccccc2Oc2ccccc2)c2c1C(=O)NCC2          Ki    340 nM
35  Cc1[nH]c(-c2cc(NS(C)(=O)=O)ccc2Oc2ccccc2)c2c1C(=O)NCC2          Ki     41 nM
36  Cc1[nH]c(-c2c(N)cccc2Oc2ccccc2)cc1C(N)=O          Ki   1600 nM
37  CCS(=O)(=O)Nc1ccc(Oc2ccc(F)cc2)c(-c2cn(C)c3c(=O)[nH]ccc23)c1          Ki    5.5 nM
38  Cc1[nH]c(-c2cc(S(C)(=O)=O)ccc2Oc2ccc(F)cc2F)cc1C(N)=O          Ki   2200 nM
39             CC(=O)c1cc(-c2ccccc2N)[nH]c1C          Ki  21000 nM
